- Measurement Target: Adenosine receptor A2b (Homo sapiens, UniProt P29275)
- Sequence (P29275 whole entry): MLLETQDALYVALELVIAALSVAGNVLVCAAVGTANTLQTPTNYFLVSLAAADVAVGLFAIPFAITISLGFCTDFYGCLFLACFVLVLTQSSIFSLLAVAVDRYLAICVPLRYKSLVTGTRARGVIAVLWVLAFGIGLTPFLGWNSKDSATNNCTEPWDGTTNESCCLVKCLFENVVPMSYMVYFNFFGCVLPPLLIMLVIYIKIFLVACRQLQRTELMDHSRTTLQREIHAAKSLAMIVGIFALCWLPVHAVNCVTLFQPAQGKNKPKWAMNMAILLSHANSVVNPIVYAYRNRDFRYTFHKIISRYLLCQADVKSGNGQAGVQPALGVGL
- Method Description: Agonist activity at human A2BAR expressed in FlpIn-CHO cells assessed as […] cAMP accumulation preincubated for 40 mins followed by forskolin addition measured after 30 mins by Alphascreen assay
Readout Name: pEC50
Keep in mind that pEC50 stands for -log10 of concentration in molar terms.

The compound identified as "Nc1sc(-c2ccc(C(=O)NCCCCCCCNc3ncnc4c3ncn4[C@@H]3O[C@H](CO)[C@@H](O)[C@H]3O)cc2)c(-c2cccc(C(F)(F)F)c2)c1C(=O)c1ccccc1" registered its pEC50 at 6.33

The compound identified as "Nc1ccc(-c2cccc(C(=O)NCCCCCCNc3ncnc4c3ncn4[C@@H]3O[C@H](CO)[C@@H](O)[C@H]3O)c2)s1" registered its pEC50 at 7.22

The compound identified as "O=C(NCCCCCCNc1ncnc2c1ncn2[C@@H]1O[C@H](CO)[C@@H](O)[C@H]1O)c1cccc(-c2cc(C(=O)c3ccccc3)cs2)c1" registered its pEC50 at 6.80

---

I'd be grateful if you could share measured Emax for these entries.
- Measurement Target: Adenosine receptor A3 (Homo sapiens) (UniProt P0DMS8)
- Sequence (P0DMS8 whole entry): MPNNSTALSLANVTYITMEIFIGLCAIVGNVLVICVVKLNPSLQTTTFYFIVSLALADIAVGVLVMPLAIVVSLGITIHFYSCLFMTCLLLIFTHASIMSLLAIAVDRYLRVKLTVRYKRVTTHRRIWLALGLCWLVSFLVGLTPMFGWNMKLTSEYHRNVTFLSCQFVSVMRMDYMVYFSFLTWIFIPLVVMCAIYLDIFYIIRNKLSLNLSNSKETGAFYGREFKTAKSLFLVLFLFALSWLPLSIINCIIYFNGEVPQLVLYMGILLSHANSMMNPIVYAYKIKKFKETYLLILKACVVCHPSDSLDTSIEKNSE
- Method Description: Agonist activity at human A3AR expressed in FlpIn-CHO cells assessed as inhibition of forskolin-stimulated cAMP accumulation preincubated for 10 mins followed by forskolin addition measured after 30 mins by Alphascreen assay relative to control
- Format: functional, cell-based
Give just the number in %; leave the unit off.

The compound identified as CCNC(=O)[C@H]1O[C@@H](n2cnc3c(N)ncnc32)[C@H](O)[C@@H]1O [NECA] registered its Emax at 97

The compound identified as "Nc1sc(-c2ccc(C(=O)NCCCCCCNc3ncnc4c3ncn4[C@@H]3O[C@H](CO)[C@@H](O)[C@H]3O)cc2)cc1C(=O)c1ccccc1" registered its Emax at 85

The compound identified as "CC(=O)Nc1sc(-c2ccc(C(=O)NCCCCCCNc3ncnc4c3ncn4[C@@H]3O[C@H](CO)[C@@H](O)[C@H]3O)cc2)c(-c2cccc(C(F)(F)F)c2)c1C(=O)c1ccccc1" registered its Emax at 60

The compound identified as "O=C(NCCCCCCNc1ncnc2c1ncn2[C@@H]1O[C@H](CO)[C@@H](O)[C@H]1O)c1cccc(-c2cc(C(=O)c3ccccc3)cs2)c1" registered its Emax at 74

The compound identified as "Nc1sc(-c2cccc(C(=O)NCCCCCCNc3ncnc4c3ncn4[C@@H]3O[C@H](CO)[C@@H](O)[C@H]3O)c2)c(-c2cccc(C(F)(F)F)c2)c1C(=O)c1ccccc1" registered its Emax at 80

The compound identified as "Nc1sc(-c2ccc(C(=O)NCCCCCCCNc3ncnc4c3ncn4[C@@H]3O[C@H](CO)[C@@H](O)[C@H]3O)cc2)c(-c2cccc(C(F)(F)F)c2)c1C(=O)c1ccccc1" registered its Emax at 56

---

- Measurement Target: UniProt P30542
- Sequence (P30542 whole entry): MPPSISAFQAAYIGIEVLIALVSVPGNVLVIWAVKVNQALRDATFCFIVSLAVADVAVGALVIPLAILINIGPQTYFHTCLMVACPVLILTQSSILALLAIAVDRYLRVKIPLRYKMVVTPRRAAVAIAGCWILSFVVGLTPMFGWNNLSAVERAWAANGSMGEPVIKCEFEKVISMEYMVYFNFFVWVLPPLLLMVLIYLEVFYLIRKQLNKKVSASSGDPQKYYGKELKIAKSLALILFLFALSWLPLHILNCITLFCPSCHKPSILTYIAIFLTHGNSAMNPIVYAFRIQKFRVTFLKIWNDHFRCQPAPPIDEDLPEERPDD
- Method Description: Agonist activity at human A1AR expressed in FlpIn-CHO cells assessed as inhibition of forskolin-stimulated cAMP accumulation preincubated for 10 mins followed by forskolin addition measured after 30 mins by Alphascreen assay
- Assay type: functional, cell-based
Readout Name: EC50 (nM)
Give just the number in nM; leave the unit off.

The molecule identified as "O=C(NCCCCCCNc1ncnc2c1ncn2[C@@H]1O[C@H](CO)[C@@H](O)[C@H]1O)c1cccc(-c2cc(C(=O)c3ccccc3)cs2)c1" registered its EC50 at 138

The molecule identified as "Nc1sc(-c2ccc(C(=O)NCCCCCCNc3nc(Cl)nc4c3ncn4[C@@H]3O[C@H](CO)[C@@H](O)[C@H]3O)cc2)c(-c2cccc(C(F)(F)F)c2)c1C(=O)c1ccccc1" registered its EC50 at 224

The molecule identified as "Nc1sc(-c2ccc(C(=O)NCCCCCCCNc3ncnc4c3ncn4[C@@H]3O[C@H](CO)[C@@H](O)[C@H]3O)cc2)c(-c2cccc(C(F)(F)F)c2)c1C(=O)c1ccccc1" registered its EC50 at 22.9

The molecule identified as "O=C(NCCCCCCNc1ncnc2c1ncn2[C@@H]1O[C@H](CO)[C@@H](O)[C@H]1O)c1cccc(-c2cccs2)c1" registered its EC50 at 234

The molecule identified as "CC(=O)Nc1sc(-c2ccc(C(=O)NCCCCCCNc3ncnc4c3ncn4[C@@H]3O[C@H](CO)[C@@H](O)[C@H]3O)cc2)c(-c2cccc(C(F)(F)F)c2)c1C(=O)c1ccccc1" registered its EC50 at 138

The molecule identified as "Nc1nc(NCCCCCCNC(=O)c2ccc(-c3sc(N)c(C(=O)c4ccccc4)c3-c3cccc(C(F)(F)F)c3)cc2)c2ncn([C@@H]3O[C@H](CO)[C@@H](O)[C@H]3O)c2n1" registered its EC50 at 1350

The molecule identified as "Nc1cc(-c2cccc(C(F)(F)F)c2)c(-c2ccc(C(=O)NCCCCCCNc3ncnc4c3ncn4[C@@H]3O[C@H](CO)[C@@H](O)[C@H]3O)cc2)s1" registered its EC50 at 38

The molecule identified as "Nc1sc(-c2ccccc2C(=O)NCCCCCCNc2ncnc3c2ncn3[C@@H]2O[C@H](CO)[C@@H](O)[C@H]2O)c(-c2cccc(C(F)(F)F)c2)c1C(=O)c1ccccc1" registered its EC50 at 1290

The molecule identified as "Nc1sc(-c2ccc(C(=O)NCCCCCNc3ncnc4c3ncn4[C@@H]3O[C@H](CO)[C@@H](O)[C@H]3O)cc2)c(-c2cccc(C(F)(F)F)c2)c1C(=O)c1ccccc1" registered its EC50 at 95.5

The molecule identified as "O=C(NCCCCCCNc1ncnc2c1ncn2[C@@H]1O[C@H](CO)[C@@H](O)[C@H]1O)c1ccc(-c2sccc2-c2cccc(C(F)(F)F)c2)cc1" registered its EC50 at 170

The molecule identified as "Nc1sc(-c2cccc(C(=O)NCCCCCCNc3ncnc4c3ncn4[C@@H]3O[C@H](CO)[C@@H](O)[C@H]3O)c2)c(-c2cccc(C(F)(F)F)c2)c1C(=O)c1ccccc1" registered its EC50 at 105

The molecule identified as "CCNC(=O)[C@H]1O[C@@H](n2cnc3c(NCCCCCCNC(=O)c4ccc(-c5sc(N)c(C(=O)c6ccccc6)c5-c5cccc(C(F)(F)F)c5)cc4)ncnc32)[C@H](O)[C@@H]1O" registered its EC50 at 97.7

The molecule identified as "O=C(NCCCCCCNc1ncnc2c1ncn2[C@@H]1O[C@H](CO)[C@@H](O)[C@H]1O)c1ccc(-c2scc(C(=O)c3ccccc3)c2-c2cccc(C(F)(F)F)c2)cc1" registered its EC50 at 110

The molecule identified as "Nc1sc(-c2ccc(C(=O)NCCCCCCNc3ncnc4c3ncn4[C@@H]3O[C@H](CO)[C@@H](O)[C@H]3O)cc2)cc1C(=O)c1ccccc1" registered its EC50 at 41.7
